Test system: B. cereus ATCC 11778
Assay: NCCLS broth microdilution MIC
Assay type: cell-based, Bacillus cereus
Details: C = B. cereus ATCC 11778
Source text: Compounds according to this invention were screened for their in vitro activities against selected species of bacteria and fungi. […]
Parameter Measured: Minimum Inhibitory Concentration (MIC)

{"columns": ["Smiles Repr", "Tested Target", "Minimum Inhibitory Concentration (MIC)"],
 "data": [
  ["CCNCCNC(=O)CCNC(=O)c1cc(NC(=O)c2cc(NC(=O)CCNC(=O)c3cc(NC(=O)c4cc(NC(=O)c5cc(Br)c(Br)s5)cn4C)cn3C)cn2C)cn1C", "B. cereus ATCC 11778", "+++ (+++ = MIC ≦4)"],
  ["Cn1cc(NC(=O)c2cc(NC(=O)c3cc(NC(=O)c4scc(Br)c4Cl)cn3C)cn2C)cc1C(=O)NCCN1CCCCC1", "B. cereus ATCC 11778", "+++ (+++ = MIC ≦4)"],
  ["CN(C)CCCNC(=O)CCNC(=O)c1cc(NC(=O)c2cc(NC(=O)CCNC(=O)c3cc(NC(=O)c4cc(NC(=O)c5cc(Br)c(Br)s5)cn4C)cn3C)cn2C)cn1C", "B. cereus ATCC 11778", "+++ (+++ = MIC ≦4)"],
  ["Cn1cc(NC(=O)c2cc(NC(=O)CCNC(=O)c3cc(NC(=O)c4cc(NC(=O)c5ccc(Br)s5)cn4C)cn3C)cn2C)cc1C(=O)NCCC(=O)NCc1cccnc1", "B. cereus ATCC 11778", ">32 µg/mL"],
  ["CN1CCCN(C(=O)CCNC(=O)c2cc(NC(=O)c3cc(NC(=O)CCNC(=O)c4cc(NC(=O)c5cc(NC(=O)c6ccc(Br)s6)cn5C)cn4C)cn3C)cn2C)CC1", "B. cereus ATCC 11778", ">32 µg/mL"]
]}

QUERY: I have this compound here, CN(C)CCN(C)C(=O)CCNC(=O)c1cc(NC(=O)c2cc(NC(=O)CCNC(=O)c3cc(NC(=O)c4cc(NC(=O)c5cc(Br)c(Br)s5)cn4C)cn3C)cn2C)cn1C , and I need its recorded Minimum Inhibitory Concentration (MIC).
RESULT: >32 µg/mL

QUERY: And then Cn1cc(NC(=O)c2cc(NC(=O)c3cc(NC(=O)c4ccc(Br)s4)cn3C)cn2C)cc1C(=O)NCCCC(=O)Nc1cn(C)c(C(=O)Nc2cc(C(=O)Nc3cc(C(=O)Nc4cc(C(=O)NCCC(=O)NCCCN5CCNCC5)n(C)c4)n(C)c3)n(C)c2)n1 , what is it?
RESULT: >32 µg/mL

QUERY: Try the compound CC(C)N(CCNC(=O)CCNC(=O)c1cc(NC(=O)c2cc(NC(=O)CCNC(=O)c3cc(NC(=O)c4cc(NC(=O)c5cc(Br)c(Br)s5)cn4C)cn3C)cn2C)cn1C)C(C)C
RESULT: +++ (+++ = MIC ≦4)
